Listing of recorded 8OG:A repair function score by entry.
B1: library; numbered along this chain (parent)
chain: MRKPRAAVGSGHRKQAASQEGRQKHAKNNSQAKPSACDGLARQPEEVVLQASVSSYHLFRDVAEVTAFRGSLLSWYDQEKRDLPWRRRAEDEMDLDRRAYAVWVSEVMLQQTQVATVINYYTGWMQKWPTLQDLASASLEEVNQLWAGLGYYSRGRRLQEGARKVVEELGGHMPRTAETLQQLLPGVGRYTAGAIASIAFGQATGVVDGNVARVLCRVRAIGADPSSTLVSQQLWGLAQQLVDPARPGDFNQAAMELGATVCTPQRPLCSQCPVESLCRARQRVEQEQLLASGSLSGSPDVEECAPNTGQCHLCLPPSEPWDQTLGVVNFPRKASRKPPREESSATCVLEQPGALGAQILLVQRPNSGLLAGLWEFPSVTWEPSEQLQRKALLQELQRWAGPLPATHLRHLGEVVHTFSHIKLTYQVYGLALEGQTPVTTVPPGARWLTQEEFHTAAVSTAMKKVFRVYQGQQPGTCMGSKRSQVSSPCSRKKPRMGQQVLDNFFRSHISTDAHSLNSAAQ

Variants of: B1
Experiment: 8OG:A repair function score (normalized; synonymous = 0, nonsense = -1) (normalized log-likelihood score); higher = more repair activity (WT-like);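 note: cells sorted at 72 h after reporter transfection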
Conditions: with 8OG:A DNA repair reporter (GFP) in HEK-293 MUTYH KO cells
readout.kind: 8OG:A repair function score

>  <mutation.annotation>
T476D

>  <result>
0.00347

$$$$
>  <mutation.annotation>
S227F

>  <result>
-0.188

$$$$
>  <mutation.annotation>
V53W

>  <result>
-0.276

$$$$
>  <mutation.annotation>
S367L

>  <result>
-0.139

$$$$
>  <mutation.annotation>
S510C

>  <result>
-0.0307

$$$$
>  <mutation.annotation>
Q310C

>  <result>
0.0147

$$$$
>  <mutation.annotation>
G326F

>  <result>
-0.812

$$$$
>  <mutation.annotation>
W75N

>  <result>
-2.91

$$$$
>  <mutation.annotation>
S486M

>  <result>
-0.00979

$$$$
>  <mutation.annotation>
M125A

>  <result>
-0.557

$$$$
>  <mutation.annotation>
R281A

>  <result>
-0.0465

$$$$
>  <mutation.annotation>
G222V

>  <result>
-0.622

$$$$
>  <mutation.annotation>
P34G

>  <result>
-0.0669

$$$$
>  <mutation.annotation>
R154P

>  <result>
-1.06

$$$$
>  <mutation.annotation>
R88E

>  <result>
-0.00364

$$$$
>  <mutation.annotation>
V165M

>  <result>
-0.283

$$$$
>  <mutation.annotation>
L184R

>  <result>
-1.2

$$$$
>  <mutation.annotation>
G444S

>  <result>
-0.291

$$$$
>  <mutation.annotation>
I509K

>  <result>
-0.00442

$$$$
>  <mutation.annotation>
L392M

>  <result>
-0.171

$$$$
>  <mutation.annotation>
R336H

>  <result>
-0.173

$$$$
>  <mutation.annotation>
V142L

>  <result>
-0.245

$$$$
>  <mutation.annotation>
N119S

>  <result>
-0.294

$$$$
>  <mutation.annotation>
K127H

>  <result>
0.135

$$$$
>  <mutation.annotation>
Q472E

>  <result>
-0.00354

$$$$
>  <mutation.annotation>
T346D

>  <result>
-0.917

$$$$
>  <mutation.annotation>
G222H

>  <result>
-0.56

$$$$
>  <mutation.annotation>
H57T

>  <result>
-0.765

$$$$
>  <mutation.annotation>
G201Y

>  <result>
-0.227

$$$$
>  <mutation.annotation>
S483C

>  <result>
0.025

$$$$
>  <mutation.annotation>
A67H

>  <result>
-0.0348

$$$$
>  <mutation.annotation>
F200R

>  <result>
-0.97

$$$$
>  <mutation.annotation>
H420Q

>  <result>
-0.0915

$$$$
>  <mutation.annotation>
Q386I

>  <result>
0.129

$$$$
>  <mutation.annotation>
Q265H

>  <result>
0.0203

$$$$
>  <mutation.annotation>
Q386S

>  <result>
-0.0961

$$$$
>  <mutation.annotation>
A461C

>  <result>
-0.0899

$$$$
>  <mutation.annotation>
S226N

>  <result>
0.261

$$$$
>  <mutation.annotation>
P225M

>  <result>
-0.186

$$$$
>  <mutation.annotation>
D77N

>  <result>
-0.122

$$$$
>  <mutation.annotation>
F504K

>  <result>
-0.0046

$$$$
>  <mutation.annotation>
E168N

>  <result>
0.0349

$$$$
>  <mutation.annotation>
S226V

>  <result>
-0.247

$$$$
>  <mutation.annotation>
L169W

>  <result>
-0.0366

$$$$
>  <mutation.annotation>
Q397C

>  <result>
-0.496

$$$$
>  <mutation.annotation>
V207H

>  <result>
-0.941

$$$$
